Reference source for all entries: PubChem BioAssay AID1159580

- method_notes: chemical genetic growth profiling, strain panel (AID 1159580);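 further: tested at 20 µM; growth read once vehicle control cultures reached saturation at 30 °C; lower values mean less growth of the strain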
- condition_description: S. cerevisiae deletion strains, growth OD, locus YHR079C, strain IRE1, active compounds read low
Hit rate of the full screen: of about 5,500 compounds, about 2,000 (36%) were called active. Not shown: some 18% with an inconclusive outcome. Some of the results follow.
Just a reminder that ties go to not fulfilled: only normalized growth strictly below 0.8 counts as fulfilled.

Example cases with answers are listed next.
INSERT INTO measurements (compound, group) VALUES
  ('C=Cc1c2[nH]c(c1C)C=c1[nH]c(c(C)c1C=C)=CC1N=C(C=c3[nH]c(c(C)c3CCC(=O)O)=C2)C(CCC(=O)O)=C1C (stereo not given)', 'not fulfilled'),
  ('Nc1ccccc1SCc1c(Cl)cccc1Cl', 'not fulfilled'),
  ('N#CC(C#N)=C(SCc1c(Cl)cccc1Cl)SCc1c(Cl)cccc1Cl', 'not fulfilled');

Is 0.8 strictly greater than the compound's reported normalized growth? compound: "O=C(N/C=C/c1ccsc1)Nc1cc(C(F)(F)F)cc(C(F)(F)F)c1" fulfilled

Is normalized growth strictly under 0.8 for the entry C=C(C)C1CNC(C(=O)O)C1CC(=O)O (stereo not given) ? not fulfilled
